# STUDY_TARGET: Bcl-2, P10415
# Sequence (P10415 1-217): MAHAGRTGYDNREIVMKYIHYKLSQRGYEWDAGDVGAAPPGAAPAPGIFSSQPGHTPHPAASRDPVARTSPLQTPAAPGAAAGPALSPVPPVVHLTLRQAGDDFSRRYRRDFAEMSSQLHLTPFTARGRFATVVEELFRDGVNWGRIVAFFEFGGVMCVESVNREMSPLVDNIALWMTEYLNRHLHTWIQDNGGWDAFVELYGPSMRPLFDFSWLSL
# ASSAY_REMARKS: peptide SPOT array, c-Myc-tagged receptor at 1 uM or 100 nM, anti-c-Myc-Cy3
ENDPOINT_NAME: SPOT signal as a fraction of Bim BH3's signal on the same receptor and array

1. NRKGEKNGKGLRHFSMKVCEKVQRKG [TFDP1]: 0.18
2. NWFGDWSTEALYQVGKEFTSKMDLEK [DYNC1H1]: 0.02
3. IKEAADIIQKLHLIAQELPFDRFSEV [EXOC5]: 0.01
4. HPKRKQVTELLLRKGANVNEKNKDFM [TNKS]: 0.13
5. GAQHSTMTSTLRRLGEDIFKGVVTKG [CCDC138]: 0.09
6. RAIPIKQGILLKRSGKSLNKEWKKKY [AGAP3]: 0.19
7. RYRHGAPAEQLRHLADMLTTKWATLQ [PLEKHH1]: 0.28

These data points were gathered from paper PMC4072508.
